Tested on: LXRa homodimer (NR concentration 270 nM)
Measurement Notes: PBM binding z-score (relative to random genomic background probes); higher = stronger binding; sequences stand for … in GC…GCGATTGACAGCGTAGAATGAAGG
Label true (1) when PBM binding z-score >= 0.2; otherwise false (0).

Consider the worked cases shown below.
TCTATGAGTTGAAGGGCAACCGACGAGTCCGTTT :: false (0)
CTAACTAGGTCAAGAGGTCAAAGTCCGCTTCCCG :: true (1)
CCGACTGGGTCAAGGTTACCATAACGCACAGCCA :: false (0)
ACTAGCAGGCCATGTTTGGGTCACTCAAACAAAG :: false (0)
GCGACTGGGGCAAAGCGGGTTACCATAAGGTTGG :: false (0)

[Q] Does PBM binding z-score meet or surpass 0.2 for `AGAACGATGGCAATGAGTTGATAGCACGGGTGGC` ?
[A] false (0)

[Q] Does PBM binding z-score meet or surpass 0.2 for `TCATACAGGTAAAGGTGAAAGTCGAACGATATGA` ?
[A] false (0)

[Q] Does PBM binding z-score meet or surpass 0.2 for `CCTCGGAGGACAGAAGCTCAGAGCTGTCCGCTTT` ?
[A] false (0)

[Q] Does PBM binding z-score meet or surpass 0.2 for `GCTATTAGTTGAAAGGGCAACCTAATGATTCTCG` ?
[A] true (1)

[Q] Does PBM binding z-score meet or surpass 0.2 for `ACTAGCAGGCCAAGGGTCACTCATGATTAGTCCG` ?
[A] true (1)

[Q] Does PBM binding z-score meet or surpass 0.2 for `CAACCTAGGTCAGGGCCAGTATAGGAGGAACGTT` ?
[A] false (0)

* * *

Tested on: LXRa:RXRa (NR concentration 270 nM, RXRa partner concentration 90 nM)
Measurement Notes: PBM binding z-score (relative to random genomic background probes); higher = stronger binding; sequences stand for … in GC…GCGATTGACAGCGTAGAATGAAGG
Classify by PBM binding z-score. Ranges: Low (below 0.2), Mid (0.2 to below 4), High (4 or more)

[Q] Assign a bin to `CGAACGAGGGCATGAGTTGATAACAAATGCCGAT`
[A] Mid

* * *

Recorded PBM binding z-score values for a group of sequences are listed next.
Test system: PPARg homodimer (NR concentration 180 nM)
Measurement Notes: PBM binding z-score (relative to random genomic background probes); higher = stronger binding; sequences stand for … in GC…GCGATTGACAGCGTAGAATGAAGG
Lab note: record just the number, no unit beside it.

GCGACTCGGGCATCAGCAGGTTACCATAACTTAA :: -0.774
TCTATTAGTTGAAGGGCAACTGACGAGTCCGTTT :: 0.905
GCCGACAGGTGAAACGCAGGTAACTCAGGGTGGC :: -0.704
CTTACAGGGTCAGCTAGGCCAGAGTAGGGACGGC :: 0.148

We now examine a further sequence.
[Q] Name the recorded PBM binding z-score of the item `CCTACTGGCCCATTCAGAGGTCATTGATCATATG` in your answer.
[A] 2.98

* * *

Tested on: PPARa:RXRa (NR concentration 270 nM, RXRa partner concentration 90 nM)
Measurement Notes: PBM binding z-score (relative to random genomic background probes); higher = stronger binding; sequences stand for … in GC…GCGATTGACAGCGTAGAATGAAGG
Classify by PBM binding z-score. Ranges: low-valued (below 0.9), mid-valued (0.9 to below 4), high-valued (4 or more)

Consider the worked cases shown below.
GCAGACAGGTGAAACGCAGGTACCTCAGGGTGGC :: low-valued
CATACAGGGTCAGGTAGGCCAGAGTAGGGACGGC :: high-valued
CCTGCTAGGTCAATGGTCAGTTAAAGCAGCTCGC :: mid-valued
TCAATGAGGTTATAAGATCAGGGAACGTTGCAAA :: mid-valued
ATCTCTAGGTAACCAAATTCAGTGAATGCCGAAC :: low-valued

Next item in the queue.
[Q] Assign a bin to `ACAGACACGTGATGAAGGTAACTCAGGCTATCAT`
[A] low-valued
